Every entry's value here was drawn from patent US20210221817A1.

# tgt: LATS1/2
# Construct: LATS1 (amino acids 589-1130; ThermoFisher, PV6363), LATS2 (amino acids 488-1080; fused on or other part: GST tag, inferred from the LanthaScreen Eu-anti-GST antibody and the ThermoFisher products
# test: TR-FRET LanthaScreen binding assay
# conditionContext: LATS1 (aa 589-1130), LATS2 (aa 488-1080), kinase tracer 236
endpoint: IC50

For orientation, consider the following solved cases.
| molecule | IC50 |
| --- | --- |
| Cc1n[nH]c2ccnc(-c3ccc(C4(c5ccc(Cl)cc5)CCNCC4)cc3)c12 [Compound 5] | 0.1 to 50 nM |
| NC(=O)c1ccc(-c2cnc3ccc(N4CCNCC4)nn23)cc1 [Compound 2] | 0.1 to 50 nM |
| NC(=O)c1ccc(-c2cnc3ccc(N4CCCC(N)C4)nn23)cc1 (centres unmarked) [Compound 3] | 0.1 to 50 nM |
| NC(=O)c1ccc(-c2cnc3ccc(N4CCC(N)CC4)nn23)cc1 [Compound 4] | 0.1 to 50 nM |

For the next question, use this molecule.
Using LATS1/2 as the test system, report measured IC50 of NC(=O)c1ccc(-c2cnc3ccc(-c4ccc(OCCN5CCOCC5)cc4)nn23)cc1 [Compound 1] . 10 to 1000 nM
